# Test method notes: Plasma pharmacokinetics of BI 187004 after single oral doses (LC–MS/MS)
# Details: male, human, plasma, po, 40 mg, BI 187004 plasma concentrations, 40 mg single oral, planned time 8 h, Max

| Compound | Unit text | concentration at 8 h |
| --- | --- | --- |
| N#Cc1ccc2c(c1)[C@H]1CCCN(C(=O)c3ccc4[nH]cnc4c3)[C@H]1C2 [BI 187004] | nM | 1190 |

====

# Test method notes: Plasma pharmacokinetics of BI 187004 after single oral doses (LC–MS/MS)
# Details: male, human, plasma, po, 10 mg, Plasma concentration Mean, 10 mg single oral; 4 h

| Compound | concentration at 4 h / nM |
| --- | --- |
| N#Cc1ccc2c(c1)[C@H]1CCCN(C(=O)c3ccc4[nH]cnc4c3)[C@H]1C2 [BI 187004] | 346 |

====

# Test method notes: Plasma pharmacokinetics of BI 187004 after single oral doses (LC–MS/MS)
# Details: male, human, plasma, po, 360 mg, BI 187004 plasma concentrations, Max, 360 mg single oral, planned time 3 h

| Sample smiles | concentration at 3 h (µM) |
| --- | --- |
| N#Cc1ccc2c(c1)[C@H]1CCCN(C(=O)c3ccc4[nH]cnc4c3)[C@H]1C2 | 12.9 |

====

# Test method notes: Plasma pharmacokinetics of BI 187004 after single oral doses (LC–MS/MS)
# Details: male, human, plasma, po, 20 mg, BI 187004 plasma concentrations, 20 mg single oral, planned time 24 h, gMean

| Sample smiles | concentration at 24 h / nM |
| --- | --- |
| N#Cc1ccc2c(c1)[C@H]1CCCN(C(=O)c3ccc4[nH]cnc4c3)[C@H]1C2 | 161 |

====

# Test method notes: Plasma pharmacokinetics of BI 187004 after single oral doses (LC–MS/MS)
# Details: male, human, plasma, po, 160 mg, BI 187004 plasma concentrations, 160 mg single oral, planned time 10 h, Max
Assay endpoint: concentration at 10 h

| Sample smiles | Assay result |
| --- | --- |
| N#Cc1ccc2c(c1)[C@H]1CCCN(C(=O)c3ccc4[nH]cnc4c3)[C@H]1C2 | 4.29 µM |

====

# Test method notes: Plasma pharmacokinetics of BI 187004 after single oral doses (LC–MS/MS)
# Details: male, human, plasma, po, 5 mg, Plasma concentration Median, 5 mg single oral; 8 h
Assay endpoint: concentration at 8 h (nM)

| Sample smiles | Assay endpoint | Assay result |
| --- | --- | --- |
| N#Cc1ccc2c(c1)[C@H]1CCCN(C(=O)c3ccc4[nH]cnc4c3)[C@H]1C2 | concentration at 8 h | 71 |

====

# Test method notes: Plasma pharmacokinetics of BI 187004 after single oral doses (LC–MS/MS)
# Details: male, human, plasma, po, 40 mg, BI 187004 plasma concentrations, 40 mg single oral, planned time 72 h, Median

| Compound | concentration at 72 h |
| --- | --- |
| N#Cc1ccc2c(c1)[C@H]1CCCN(C(=O)c3ccc4[nH]cnc4c3)[C@H]1C2 [BI 187004] | 22.1 nM |

====

# Test method notes: Plasma pharmacokinetics of BI 187004 after single oral doses (LC–MS/MS)
# Details: male, human, plasma, po, 240 mg, BI 187004 plasma concentrations, Max, 240 mg single oral, planned time 24 h

| Sample smiles | concentration at 24 h [nM] |
| --- | --- |
| N#Cc1ccc2c(c1)[C@H]1CCCN(C(=O)c3ccc4[nH]cnc4c3)[C@H]1C2 | 2630 |

====

# Test method notes: Plasma pharmacokinetics of BI 187004 after single oral doses (LC–MS/MS)
# Details: male, human, plasma, po, 40 mg, BI 187004 plasma concentrations, 40 mg single oral, planned time 6 h, Min
Assay endpoint: concentration at 6 h

| Sample smiles | Assay result |
| --- | --- |
| N#Cc1ccc2c(c1)[C@H]1CCCN(C(=O)c3ccc4[nH]cnc4c3)[C@H]1C2 | 736 nM |

====

# Test method notes: Plasma pharmacokinetics of BI 187004 after single oral doses (LC–MS/MS)
# Details: male, human, plasma, po, 40 mg, BI 187004 plasma concentrations, 40 mg single oral, planned time 96 h, Median

| Compound | concentration at 96 h / nM |
| --- | --- |
| N#Cc1ccc2c(c1)[C@H]1CCCN(C(=O)c3ccc4[nH]cnc4c3)[C@H]1C2 [BI 187004] | 11.1 |

====

# Test method notes: Plasma pharmacokinetics of BI 187004 after single oral doses (LC–MS/MS)
# Details: male, human, plasma, po, 360 mg, BI 187004 plasma concentrations, Min, 360 mg single oral, planned time 72 h
Assay endpoint: concentration at 72 h (µM)

| Sample smiles | Unit text | Assay result |
| --- | --- | --- |
| N#Cc1ccc2c(c1)[C@H]1CCCN(C(=O)c3ccc4[nH]cnc4c3)[C@H]1C2 | µM | 0.0691 |

====

# Test method notes: Plasma pharmacokinetics of BI 187004 after single oral doses (LC–MS/MS)
# Details: male, human, plasma, po, 240 mg, BI 187004 plasma concentrations, Mean, 240 mg single oral, planned time 48 h

| Compound | concentration at 48 h (nM) |
| --- | --- |
| N#Cc1ccc2c(c1)[C@H]1CCCN(C(=O)c3ccc4[nH]cnc4c3)[C@H]1C2 [BI 187004] | 508 |

====

# Test method notes: Plasma pharmacokinetics of BI 187004 after single oral doses (LC–MS/MS)
# Details: male, human, plasma, po, 10 mg, Plasma concentration gMean, 10 mg single oral; 5 h
Assay endpoint: concentration at 5 h (nM)

| Sample smiles | Assay result |
| --- | --- |
| N#Cc1ccc2c(c1)[C@H]1CCCN(C(=O)c3ccc4[nH]cnc4c3)[C@H]1C2 | 270 |

====

# Test method notes: Plasma pharmacokinetics of BI 187004 after single oral doses (LC–MS/MS)
# Details: male, human, plasma, po, 20 mg, BI 187004 plasma concentrations, 20 mg single oral, planned time 72 h, Mean

| Sample smiles | Unit text | concentration at 72 h |
| --- | --- | --- |
| N#Cc1ccc2c(c1)[C@H]1CCCN(C(=O)c3ccc4[nH]cnc4c3)[C@H]1C2 | nM | 20.5 |

====

# Test method notes: Plasma pharmacokinetics of BI 187004 after single oral doses (LC–MS/MS)
# Details: male, human, plasma, po, 360 mg, BI 187004 plasma concentrations, Median, 360 mg single oral, planned time 8 h
Assay endpoint: concentration at 8 h

| Sample smiles | Assay result |
| --- | --- |
| N#Cc1ccc2c(c1)[C@H]1CCCN(C(=O)c3ccc4[nH]cnc4c3)[C@H]1C2 | 6.27 µM |

====

# Test method notes: Plasma pharmacokinetics of BI 187004 after single oral doses (LC–MS/MS)
# Details: male, human, plasma, po, 360 mg, BI 187004 plasma concentrations, Max, 360 mg single oral, planned time 48 h
Assay endpoint: concentration at 48 h (nM)

| Compound | Assay endpoint | Assay result |
| --- | --- | --- |
| N#Cc1ccc2c(c1)[C@H]1CCCN(C(=O)c3ccc4[nH]cnc4c3)[C@H]1C2 [BI 187004] | concentration at 48 h | 1470 |

====

# Test method notes: Plasma pharmacokinetics of BI 187004 after single oral doses (LC–MS/MS)
# Details: male, human, plasma, po, 10 mg

| Compound | Unit text | half-life |
| --- | --- | --- |
| N#Cc1ccc2c(c1)[C@H]1CCCN(C(=O)c3ccc4[nH]cnc4c3)[C@H]1C2 [BI 187004] | h | 23.7 |

====

# Test method notes: Plasma pharmacokinetics of BI 187004 after single oral doses (LC–MS/MS)
# Details: male, human, plasma, po, 20 mg, BI 187004 plasma concentrations, 20 mg single oral, planned time 1.5 h, Median
Assay endpoint: concentration at 1.5 h (µM)

| Sample smiles | Assay result |
| --- | --- |
| N#Cc1ccc2c(c1)[C@H]1CCCN(C(=O)c3ccc4[nH]cnc4c3)[C@H]1C2 | 0.944 |

====

# Test method notes: Plasma pharmacokinetics of BI 187004 after single oral doses (LC–MS/MS)
# Details: male, human, plasma, po, 160 mg, BI 187004 plasma concentrations, 160 mg single oral, planned time 96 h, Max
Assay endpoint: concentration at 96 h (nM)

| Sample smiles | Assay endpoint | Assay result |
| --- | --- | --- |
| N#Cc1ccc2c(c1)[C@H]1CCCN(C(=O)c3ccc4[nH]cnc4c3)[C@H]1C2 | concentration at 96 h | 46.8 |

====

# Test method notes: Plasma pharmacokinetics of BI 187004 after single oral doses (LC–MS/MS)
# Details: male, human, plasma, po, 240 mg, BI 187004 plasma concentrations, Mean, 240 mg single oral, planned time 3 h
Assay endpoint: concentration at 3 h (µM)

| Compound | Assay endpoint | Assay result |
| --- | --- | --- |
| N#Cc1ccc2c(c1)[C@H]1CCCN(C(=O)c3ccc4[nH]cnc4c3)[C@H]1C2 [BI 187004] | concentration at 3 h | 5.15 |

Reference source: paper PMC8364686
